Data credit: ChEMBL document CHEMBL1926574

Measured Activity, listed per entry.
- TESTED SYSTEM: Adenosine receptor A3 (Homo sapiens)
- ASSAY INFO: Displacement of [I125]I-AB-MECA from human adenosine A3 receptor expressed in CHO cells at 10 uM by scintillation counting
- Assay type: cell-based
Your answer is read as %, so omit the unit and give the number.

These solved cases illustrate the format of a correct answer.
CCCCC(=O)N1CCN(c2nc(N)n3nc(-c4ccco4)nc3n2)CC1: 56.2
CC(C)(C)CC(=O)N1CCN(c2nc(N)n3nc(-c4ccco4)nc3n2)CC1: 41.9
NCCOCCOCCNc1nc(N)n2nc(-c3ccco3)nc2n1.O=C(O)C(F)(F)F: 59.2
Nc1nc(N2CCCC2)nc2nc(-c3ccco3)nn12: 75
NCCCNc1nc(N)n2nc(-c3ccco3)nc2n1: 40.5

INPUT: Could you share which Activity value was measured for O=C(Nc1nc(Oc2ccccc2)nc2nc(-c3ccco3)nn12)c1ccccc1 ?
OUTPUT: 32.3
